molecular target: Chromobox protein homolog 7 (Homo sapiens); assay: blockers of CBX7 binding to H3K27me3 peptide – biochemical, AlphaScreen, primary screen (AID 1224903); conditions: AlphaScreen His6-CBX7 / biotin-H3K27me3 peptide binding, stronger effect = lower value
Among all 66,000 compounds or so, about 720 (1.1%) were called active. The list comes from a sample in which actives are over-represented; it also holds close analogues and randomly drawn compounds.
For each record, write down the corresponding normalised signal (fraction of DMSO).
One number for each entry.

Batch request: normalised signal (fraction of DMSO) for each of the following compounds.
1. O=C1C2C3C=CC(C4CC34)C2C(=O)N1Cc1cccnc1 (configuration not stated)
2. CCc1nc2ccc(C(=O)NCC(OC)OC)cc2nc1CC
3. CCCCCC(O)(CCN1CCCCC1)c1ccccc1 (configuration not stated)
4. CCOC(=O)CNC(=O)c1cc2c(n(-c3ccc(C)cc3)c1=O)CCCC2=O
5. Cc1ccc(Cn2c(=O)cc(C(=O)NC3CC3)c3ccccc32)cc1
6. Cc1cc(C)cc(NS(=O)(=O)c2cnc[nH]2)c1

[0.934, 1.13, 1.09, 1.19, 0.912, 1.01]

Noted for CCC(C)NC(=O)c1sc2ncn(CC(=O)Nc3ccccc3OC)c(=O)c2c1C (configuration not stated) : its normalised signal (fraction of DMSO) reads 1.07
